Molecular target: UniProtKB P03372
Sequence (P03372 whole entry): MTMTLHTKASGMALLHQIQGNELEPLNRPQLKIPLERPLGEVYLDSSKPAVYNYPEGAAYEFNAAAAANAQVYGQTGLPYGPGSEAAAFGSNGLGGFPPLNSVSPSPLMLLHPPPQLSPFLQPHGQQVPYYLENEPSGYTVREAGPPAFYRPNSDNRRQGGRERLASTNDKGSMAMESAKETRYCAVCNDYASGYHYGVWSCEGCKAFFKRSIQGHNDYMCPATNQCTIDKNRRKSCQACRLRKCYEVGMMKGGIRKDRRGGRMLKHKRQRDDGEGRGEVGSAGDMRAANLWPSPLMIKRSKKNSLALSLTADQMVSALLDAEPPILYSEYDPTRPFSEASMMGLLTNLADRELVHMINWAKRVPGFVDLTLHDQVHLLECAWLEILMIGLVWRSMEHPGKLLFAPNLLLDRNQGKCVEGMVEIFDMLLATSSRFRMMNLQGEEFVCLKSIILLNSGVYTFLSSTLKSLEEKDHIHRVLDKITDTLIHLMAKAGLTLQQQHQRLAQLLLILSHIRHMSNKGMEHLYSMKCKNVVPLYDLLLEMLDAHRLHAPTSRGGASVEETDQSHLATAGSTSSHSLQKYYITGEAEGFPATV
MEASURED_QUANTITY: AC50

Consider the following items and state reported AC50 for each.
1. CC(C)(C(=O)c1cccnc1)c1cccnc1
2. COc1ccccc1OCC(O)COC(N)=O (centres undefined)
3. Nc1nc2ccc(OC(F)(F)F)cc2s1
4. CC(C)(N)Cc1ccc(Cl)cc1
5. CO/N=C(\C(=O)N[C@@H]1C(=O)N2C(C(=O)[O-])=C(C[N+]3(C)CCCC3)CS[C@H]12)c1csc(N)n1
6. C#C[C@]1(O)CC[C@H]2[C@@H]3CCC4=CCCC[C@@H]4[C@H]3CC[C@@]21C
7. CC(=O)OCC(=O)[C@@]12OC3(CCCC3)O[C@@H]1C[C@H]1[C@@H]3CCC4=CC(=O)C=C[C@]4(C)[C@@]3(F)[C@@H](O)C[C@@]12C [AMCINONIDE]

> 10 µM
> 30 µM
> 30 µM
> 30 µM
> 30 µM
> 30 µM
> 30 µM

Consider the following items and state reported AC50 for each.
1. NC(=O)c1ncn([C@@H]2O[C@H](CO)[C@@H](O)[C@H]2O)c1O
2. NC(N)=Nc1nc(CSCCC(N)=NS(N)(=O)=O)cs1

1. > 30 µM
2. > 30 µM

---

Reported AC50 for target or system B2 bradykinin receptor (Homo sapiens), by entry. Further: assay procedure not described here.

MOLECULE: COC(=O)C1=C(C)NC(C)=C(C(=O)OCC(C)C)C1c1ccccc1[N+](=O)[O-] (stereo not drawn) [NISOLDIPINE]
AC50: > 10 µM
--
MOLECULE: Cc1cccc(C)c1OCC(C)N (stereo not drawn) [MEXILETINE]
AC50: > 30 µM

Field: next molecule
Short answer please: AC50, B2 bradykinin receptor (Homo sapiens), entry Cc1nc2ccc(CN(C)c3ccc(C(=O)N[C@@H](CCC(=O)O)C(=O)O)s3)cc2c(=O)[nH]1 [RALTITREXED]
> 30 µM

---

Molecular target: 5-hydroxytryptamine receptor 2B (Homo sapiens); further: assay procedure not described here
Sequence (P41595 whole entry): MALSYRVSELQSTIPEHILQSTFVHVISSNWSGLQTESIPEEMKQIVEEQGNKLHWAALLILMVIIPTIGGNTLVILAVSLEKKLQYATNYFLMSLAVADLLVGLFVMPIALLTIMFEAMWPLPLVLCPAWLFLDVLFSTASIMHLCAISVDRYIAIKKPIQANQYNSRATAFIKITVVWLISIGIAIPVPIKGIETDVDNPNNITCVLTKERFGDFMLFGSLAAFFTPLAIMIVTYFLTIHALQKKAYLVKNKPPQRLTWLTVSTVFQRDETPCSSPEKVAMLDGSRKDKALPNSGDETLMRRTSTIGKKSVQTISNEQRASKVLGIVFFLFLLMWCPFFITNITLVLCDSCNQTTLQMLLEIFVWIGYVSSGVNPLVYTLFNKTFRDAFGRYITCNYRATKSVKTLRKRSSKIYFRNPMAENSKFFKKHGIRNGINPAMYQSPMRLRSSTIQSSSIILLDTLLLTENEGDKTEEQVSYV
Would you mind telling me the reported AC50 of each entry?

MOLECULE: CCOc1cc(N)c([N+](=O)[O-])cc1C(=O)NC1CCN(CC2CC=CCC2)CC1 (centres undefined) [CINITAPRIDE]
AC50: 0.0023 µM

MOLECULE: O=C1CCC(N2C(=O)c3ccccc3C2=O)C(=O)N1 (centres undefined) [THALIDOMIDE]
AC50: > 10 µM

MOLECULE: NC(=O)C[S+]([O-])C(c1ccccc1)c1ccccc1 (centres undefined) [MODAFINIL]
AC50: > 10 µM

MOLECULE: Oc1ncnc2[nH]ncc12 [ALLOPURINOL]
AC50: > 10 µM

MOLECULE: Nc1nc(N)c2nc(-c3ccccc3)c(N)nc2n1
AC50: > 10 µM

Consider the following items and state reported AC50 for each.
1. CN[C@@H](C)[C@H](O)c1ccccc1 [EPHEDRINE]
2. C[C@H]1O[C@H](O[C@H]2[C@H](O)[C@@H](O)[C@@H](O[C@H]3[C@H](O)[C@@H](O)C(O)O[C@@H]3CO)O[C@@H]2CO)[C@H](O)[C@@H](O)[C@@H]1N[C@H]1C=C(CO)[C@@H](O)[C@H](O)[C@H]1O (some centres undefined) [ACARBOSE]

1. > 10 µM
2. > 10 µM

Consider the following items and state reported AC50 for each.
1. CCOC(=O)[C@H](CCc1ccccc1)N[C@@H](C)C(=O)N1CCC[C@H]1C(=O)O
2. NC(=O)c1cnccn1 [PYRAZINAMIDE]

1: > 10 µM; 2: > 10 µM
